System: TTK
assayContext: concentration: 1 μM, replicates: in singlicate; n = 1;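 also: KINOMEscan kinase panel screen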
attributeMeasured: %Inh
Please append the unit to your numeric answer.

Consider the reported %Inh for these compounds:
# compound, testSystem, %Inh
data = [
    ("CCC(=O)c1c(-c2ccccc2)c2cc(Cl)ccc2c(=O)n1Cc1ccc(C(=O)O)cc1", "TTK", "0%"),
    ("O=c1cc(N2CCOCC2)nc2n(Cc3ccc(F)c(Cl)c3)ccn12 [GSK2297099]", "TTK", "0%"),
    ("Cc1cccc(-c2cc(-c3c[nH]nc3-c3ccccn3)ccn2)c1 [GW679395]", "TTK", "23%"),
]

q: Tell me the measured %Inh of COc1ccc(Nc2nccc(N3CCC(NS(=O)(=O)c4ccc(NC(C)=O)cc4)C3)n2)cc1 (stereo not shown) [GSK1379729] , please.
a: 7%

###

System: NEK5
assayContext: concentration: 1 μM, replicates: in singlicate; n = 1
attributeMeasured: %Inh (%)
Numbers only, in %.

# compound, attributeMeasured, quantityUnit, numericResult
rows = [
    ("Cc1nc(N(C)[C@H]2CN(C(=O)CC#N)CC[C@H]2C)c2cc[nH]c2n1", "%Inh", "%", 11),
    ("COc1cc(Nc2ccnc3ccc(C(F)(F)F)cc23)cc(OC)c1OC", "%Inh", "%", 13),
    ("CCC(=O)c1c(-c2ccccc2)c2cc(Cl)ccc2c(=O)n1Cc1cc(S(C)(=O)=O)n(CC(N)=O)n1", "%Inh", "%", 0),
    ("COc1ccc(CNC(=O)NC2CCN(c3ccnc(Nc4ccc(F)cc4)n3)C2)cc1 (stereo not drawn)", "%Inh", "%", 35),
    ("CCn1c(-c2ccoc2)nc2cnccc21", "%Inh", "%", 4),
]

Look at each compound and report its %Inh.
1. CCCNC(=O)Nc1ccc(Oc2ncnc3ccn(C)c23)cc1
2. COc1cc(OC)cc(-c2cc3cnc(N)nc3nc2NC(=O)NC(C)(C)C)c1
3. Cc1nnc(-c2ccc(C)c(-c3ccc(C(=O)O)cc3)c2)o1

a:
0
0
2

q: Tell me the measured %Inh of "O=C(Nc1n[nH]c2cc(-c3ccccc3F)ccc12)C1CC1" , please.
a: 0

###

Kindly supply the reported %Inh values for the records listed here.
Test system: SIK
assayContext: concentration: 1 μM, replicates: in singlicate; n = 1
One number for each entry, in %.

# compound, testSystem, attributeMeasured, numericResult
records = [
    ("O=C(NCc1cccs1)c1cc(C(=O)c2c(Cl)cccc2Cl)c[nH]1", "SIK", "%Inh", 4),
    ("CCC(=O)c1c(-c2ccccc2)c2cc(Cl)ccc2c(=O)n1Cc1ccc(C(=O)O)cc1", "SIK", "%Inh", 0),
    ("COc1cc2ncn(-c3cc(OCc4ccncc4Br)c(C(N)=O)s3)c2cc1OC", "SIK", "%Inh", 26),
    ("Cc1nc(N(C)[C@H]2CN(C(=O)CC#N)CC[C@H]2C)c2cc[nH]c2n1", "SIK", "%Inh", 6),
    ("Nc1nc(-c2ccccc2F)c(-c2ccnc3ccccc23)s1", "SIK", "%Inh", 0),
    ("COc1cc(Nc2nccc(N3CCC(NC(=O)C(C)c4ccc(Cl)cc4)C3)n2)cc(OC)c1OC (stereo not drawn)", "SIK", "%Inh", 1),
]

Look at each compound and report its %Inh.
1. COc1cccc(-n2cnc3c(N)ncnc32)c1
2. Nc1n[nH]c2nnc(-c3ccccc3)c(-c3ccccc3)c12
3. Cc1cc(Nc2nc(-c3cccc(C)n3)nc3ccccc23)ccn1

a:
1: 0; 2: 0; 3: 0

Source: paper PMC5540273
